Listed here: items and their measured RLU.
Target: T1, apical domain of human CD71 (human, UniProt P02786 189-383, limits assumed)
T1 construct: domain: apical domain; Screen 4 panned on human apical domains, the ELISA text says only 'apical domain'
T1 sequence (P02786 189-383 limits assumed): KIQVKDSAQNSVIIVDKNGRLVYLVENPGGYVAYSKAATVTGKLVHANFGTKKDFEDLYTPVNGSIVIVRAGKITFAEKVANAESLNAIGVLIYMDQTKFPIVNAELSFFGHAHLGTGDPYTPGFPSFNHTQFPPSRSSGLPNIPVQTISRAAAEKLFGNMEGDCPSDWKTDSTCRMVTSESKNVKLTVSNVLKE
Experiment: primary ELISA; further: test concentration or dose not given here
// unit must come after the numeric part

Observe how each entry below is paired with its result.
[
  {
    "Binder": "CD71-binding FN3 domain of SEQ ID NO: 459 (designed binder) MLPAPKNLVVSRVTEDSARLSWTAPDAAFDSFFIRYLEPQPPGEAIHLSVPGSERSYDLTGLKPGTEYNVTIQGVKGGFPSMPLYAIFTT",
    "RLU": "2.61e+06 RLU"
  },
  {
    "Binder": "CD71-binding FN3 domain of SEQ ID NO: 507 (designed binder) MLPAPKNLVVSRVTEDSARLSWTAPDAAFDSFFIGYLEPQPPGEAIHLLVPGSERSYDLTGLKPGTEYNVTIQGVKGGFPSMPLSAIFTT",
    "RLU": "4.83e+06 RLU"
  }
]

I would be grateful if you could share the reported RLU for CD71-binding FN3 domain of SEQ ID NO: 460 (designed binder) MLPAPKNLVVSRVTEDSARLSWTAPDAAFDSFFIGYLEPQPPGEAISLYVPGSERSYDQTGLKPGTEYNVTIQGVKGGFPSDPLSARFTT .
2.8e+06 RLU
